Sourced from PubChem BioAssay AID738

assay: growth inhibition of yeast control strain, primary screen, counter-screen for post-Golgi transport modulator project (AID 738); details: efflux-deficient yeast background strain, growth absorbance A615, 16 h; at 10 µM
The whole screen tested about 98,000 compounds, of which about 4,900 (5%) were called active. No stated cut-off is given here; in the data, active means inhibition above about 30%; inactive means the rest. The full list was thinned out, with actives kept by preference.
Your reply should match one of these outcome classes. True = active, False = inactive

Just curious, what result did CCOC(=O)C(C(=O)OCC)C(C#N)c1ccccc1 (stereo unspecified) get here? True

Tell me the recorded outcome of this test for CCC(c1nnnn1C1CCCC1)N(Cc1cccs1)Cc1cc2cccc(C)c2[nH]c1=O (stereo unspecified) . True

How did this test come out for O=C(NCC1CCC(C(=O)O)CC1)OCc1ccccc1 (stereo unspecified) ? False

What outcome does the record of this test show for O=S(=O)(c1cccc2nonc12)N1CCN(c2cccc(Cl)c2)CC1 ? False

Hi team, can someone confirm the assay call for O=C(CNC(=O)c1ccccc1)NCC(=O)OCc1ccc(Cl)cc1 ? False

Answer briefly: the call reported for Cn1c2ccccc2n2c(=O)c(=O)n(CC(=O)c3ccc(F)cc3)nc12 in this assay. False

GET /call?item= c1ccc(-n2nnnc2NC2CCCCCC2)cc1 returns the recorded outcome of this test. False

What was the test verdict on CCOC(=O)c1ccc(NC(=O)CSc2ncccn2)cc1 ? True

Record request — test call for COc1cc(Cl)c(S(=O)(=O)N2CCN(Cc3ccc4c(c3)OCO4)CC2)cc1Cl True

Each compound tested received a call. Report the one for CCC(c1nnnn1Cc1ccco1)N(CCc1ccccc1)Cc1cc2ccc(OC)cc2[nH]c1=O (stereo unspecified) . False

What did this assay record as the result for CCOC(=O)c1sc(NC(=O)CSc2ncccn2)c(C#N)c1C ? False
